Target: human capsaicin receptor (Homo sapiens, UniProt Q8NER1)
Construct: pBK-CMV expression construct encoding the full length human capsaicin receptor; expressed in transfected cells
Sequence (Q8NER1 whole entry): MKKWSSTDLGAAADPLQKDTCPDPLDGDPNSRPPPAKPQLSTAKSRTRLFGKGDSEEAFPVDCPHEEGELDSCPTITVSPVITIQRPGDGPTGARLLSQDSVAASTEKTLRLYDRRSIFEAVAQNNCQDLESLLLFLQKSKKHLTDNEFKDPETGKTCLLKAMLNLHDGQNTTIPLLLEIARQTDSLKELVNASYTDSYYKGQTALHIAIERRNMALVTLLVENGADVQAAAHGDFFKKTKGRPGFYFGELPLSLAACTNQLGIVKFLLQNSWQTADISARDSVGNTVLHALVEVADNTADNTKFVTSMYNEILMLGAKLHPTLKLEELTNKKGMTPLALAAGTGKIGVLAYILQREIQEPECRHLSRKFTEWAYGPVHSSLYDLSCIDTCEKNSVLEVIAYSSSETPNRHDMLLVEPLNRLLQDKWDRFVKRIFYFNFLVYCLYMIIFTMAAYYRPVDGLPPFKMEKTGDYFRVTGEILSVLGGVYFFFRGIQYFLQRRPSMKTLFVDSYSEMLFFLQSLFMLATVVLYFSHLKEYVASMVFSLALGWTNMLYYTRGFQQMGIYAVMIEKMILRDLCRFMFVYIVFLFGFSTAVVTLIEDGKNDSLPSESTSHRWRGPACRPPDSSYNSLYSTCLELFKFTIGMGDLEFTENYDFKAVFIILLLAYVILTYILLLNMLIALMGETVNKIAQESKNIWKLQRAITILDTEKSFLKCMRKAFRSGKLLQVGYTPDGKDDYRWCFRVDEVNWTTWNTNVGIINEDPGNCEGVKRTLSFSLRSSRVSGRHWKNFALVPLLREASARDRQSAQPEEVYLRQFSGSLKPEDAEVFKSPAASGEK
Assay: Calcium mobilization assay, determination of antagonist activity (Example 6)
Type: cell-based
Conditions: determined as described in Example 6 (calcium mobilization, antagonist activity); Table II
For each of the compounds below, state its IC50.

Some compounds with recorded IC50:
>>> assay_result("Fc1ccc(-c2cc(N3CCN(c4ncccc4Cl)CC3)nc(SCc3ccccc3)n2)cc1Cl [Example 700]")
"≤ 1000 nM"
>>> assay_result("Cc1cccnc1N1CCN(c2cc(-c3ccc(F)cc3)nc(N3CCCC3C)n2)CC1 (centres unmarked) [Example 702]")
"≤ 1000 nM"

Provide the reported IC50 of each entry below, same order.
1. O=S(=O)(Cc1ccccc1)c1nc(-c2ccc(F)c(Cl)c2)cc(N2CCN(c3ncccc3Cl)CC2)n1 [Example 701]
2. CC(C)Nc1nc(-c2ccc(F)c(Cl)c2)cc(N2CCN(c3ncccc3C(F)(F)F)CC2)n1 [Example 580]
3. Cc1cc(-c2cc(N3CCN(c4ncccc4C(F)(F)F)C[C@H]3C)nc(N3CCCC3C)n2)ccc1F (some centres unmarked) [Example 754]
4. COC[C@@H]1CCCN1c1nc(-c2ccc(F)c(C)c2)cc(N2CCN(c3ncccc3Cl)CC2)n1 [Example 726]
5. Cc1cc(-c2cc(N3CCN(c4ncccc4C(F)(F)F)CC3)nc(N3CCOCC3)n2)ccc1F [Example 576]
6. CC1(C)CCCN(c2nc(-c3ccc(F)c(Cl)c3)cc(N3CCN(c4ncccc4C(F)(F)F)CC3)n2)C1 [Example 612]

Result string:
≤ 1000 nM
≤ 1000 nM
≤ 1000 nM
≤ 1000 nM
≤ 1000 nM
≤ 1000 nM

The reported measurements were obtained from patent US7566712B2.
